Molecular target: Cytochrome P450 3A4 (Homo sapiens, UniProt P08684);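 also: confirmatory qHTS run detecting inhibitors and substrates of CYP3A4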
Sequence (P08684 whole entry): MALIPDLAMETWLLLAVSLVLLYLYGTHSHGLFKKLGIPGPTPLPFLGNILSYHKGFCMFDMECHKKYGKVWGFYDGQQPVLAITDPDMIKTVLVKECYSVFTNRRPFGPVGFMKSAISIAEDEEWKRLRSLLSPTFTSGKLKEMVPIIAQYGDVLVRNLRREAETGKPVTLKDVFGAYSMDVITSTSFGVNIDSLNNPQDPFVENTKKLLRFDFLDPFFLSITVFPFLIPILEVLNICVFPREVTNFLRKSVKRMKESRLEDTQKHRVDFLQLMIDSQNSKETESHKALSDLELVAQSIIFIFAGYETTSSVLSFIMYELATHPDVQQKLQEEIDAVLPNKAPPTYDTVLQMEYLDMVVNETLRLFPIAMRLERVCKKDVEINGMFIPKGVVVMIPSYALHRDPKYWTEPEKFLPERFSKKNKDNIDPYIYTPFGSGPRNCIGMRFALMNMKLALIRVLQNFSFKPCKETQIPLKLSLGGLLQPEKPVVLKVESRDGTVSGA
Conditions: Potency
Reported AC50 by item:
Measurement name: AC50

compound="COc1ccccc1/C=C/C1=CC2(C)CC1(C)C(c1ccccc1OC)CC2=O (stereo not drawn)" obs_value="3.16 µM (inconclusive)"
compound=CC(=O)Oc1cc(OC(C)=O)c2c(=O)cc(-c3ccc(OC(C)=O)c(OC(C)=O)c3)oc2c1 obs_value="0.794 µM (inconclusive)"
compound="CC1(C)[C@@H](O)CC[C@]2(C)[C@H]3C(=O)C=C4[C@@H]5C[C@@](C)(C(=O)O)CC[C@]5(C)CC[C@@]4(C)[C@]3(C)CC[C@@H]12 [ENOXOLONE]" obs_value="15.8 µM (inconclusive)"
compound=O=c1cccc2n1C[C@H]1CNC[C@H]2C1 obs_value="31.6 µM (inconclusive)"
compound=Cc1cc(O)cc(=O)o1 obs_value="39.8 µM (inconclusive)"
compound="CCCn1c(-c2ccc(F)cc2)nc2c(N3CCC(N(C)C)C3)nc(C)nc21 (stereo not drawn)" obs_value="15.8 µM (inconclusive)"
compound=Cc1nc(NC2CCCCC2)c2nc(-c3ccccc3)n(CCN(C)C)c2n1 obs_value="25.1 µM (inconclusive)"
compound=CN(C)c1ccc(C(=N)c2ccc(N(C)C)cc2)cc1 obs_value="15.8 µM (inconclusive)"

====

Target: High affinity choline transporter 1 (Homo sapiens)
Sequence (Q9GZV3 whole entry): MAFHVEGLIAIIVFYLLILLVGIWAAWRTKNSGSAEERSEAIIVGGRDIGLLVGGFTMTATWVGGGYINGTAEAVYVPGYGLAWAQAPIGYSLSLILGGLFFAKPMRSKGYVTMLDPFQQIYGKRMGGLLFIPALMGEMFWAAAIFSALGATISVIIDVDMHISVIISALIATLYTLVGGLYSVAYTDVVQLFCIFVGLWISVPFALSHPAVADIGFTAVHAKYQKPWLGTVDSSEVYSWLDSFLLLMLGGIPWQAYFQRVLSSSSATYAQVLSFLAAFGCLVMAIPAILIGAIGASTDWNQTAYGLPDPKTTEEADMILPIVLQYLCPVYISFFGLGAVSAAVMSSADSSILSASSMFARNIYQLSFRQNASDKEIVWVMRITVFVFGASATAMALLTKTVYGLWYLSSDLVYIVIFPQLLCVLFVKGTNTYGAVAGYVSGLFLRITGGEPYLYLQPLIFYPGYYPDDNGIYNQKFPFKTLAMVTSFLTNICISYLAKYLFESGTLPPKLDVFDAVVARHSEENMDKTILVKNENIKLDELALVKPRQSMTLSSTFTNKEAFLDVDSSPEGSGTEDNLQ
Experiment: human choline transporter blockers, potency – cell-based, 10-point CRC, membrane potential dye, dose response (AID 588401);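 also: membrane potential dye fluorescence of choline-evoked depolarization via CHT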
Type: functional
The source made the active and inactive calls.
IC50 values, listed per item
Measurement name: IC50

smiles_str=COc1cccc(CCNC(=O)c2ccc(OC)c(OC3CCN(C(C)C)CC3)c2)c1 obs_value="3980 nM (active)"
smiles_str=CCc1nnc(NC(=O)c2nc(S(=O)(=O)Cc3cccc(C)c3)ncc2Cl)s1 obs_value="2820 nM (active)"
smiles_str=CN1CCN(CCNC(=O)c2ccc3nc(-c4ccc(F)cc4)c(-c4ccc(F)cc4)nc3c2)CC1 obs_value="1580 nM (active)"
smiles_str=Nc1nc(Cl)nc2c1ncn2[C@@H]1O[C@H](CO)[C@@H](O)[C@H]1O obs_value="336 nM (active)"

====

AC50 values for the compounds below.
Test system: INS1
Assay: INS-1E survival protection against cytokine death – cell-based, luminescence, retest, dose response (AID 449756);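 also: cell death triggered by IL-1 beta plus TNF-alpha plus IFN-gamma mixture; protective hits raise ATP signal compared with cytokine alone wells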
Assay type: functional
Settings: Rattus norvegicus
Structures can show the parent of a compound that is named as a salt. Activity calls are given as the source filed them.
Measurement name: AC50

compound=CC(C)(C)Sc1ccc2nc3c(n2c1)CCCC3 obs_value="14.7 µM (active)"
compound=COc1ccc(-c2csc(NC(=O)c3ccccc3NS(=O)(=O)c3ccc(F)c(F)c3)n2)cc1 obs_value="3.05 µM (active)"
compound=Nc1c(C(=O)Nc2ccc(S(=O)(=O)N3CCCC3)cc2)sc2nc3ccc(OC(F)(F)F)cc3cc12 obs_value="3.5 µM (active)"
compound=Cn1nc([N+](=O)[O-])nc1Sc1cccc2cccnc12 obs_value="2.59 µM (active)"
compound="CCCCC(CC)CN=C(N)N=C(N)NCCCCCCNC(N)=NC(N)=NCC(CC)CCCC (configuration not stated) [ALEXIDINE HYDROCHLORIDE]" obs_value="2.26 µM (active)"
compound=Cc1cc([N+](=O)[O-])nn1Cc1ccc(C(=O)N/N=C/c2ccc(O)cc2O)cc1 obs_value="1.37 µM (active)"
compound=N=c1c2c(-c3ccccc3)c(-c3ccccc3)n(Cc3ccco3)c2ncn1CCCN1CCOCC1 obs_value="14.3 µM (active)"

====

Target: Peroxisome proliferator-activated receptor gamma/Nuclear receptor coactivator 3 (Homo sapiens)
Sequence (P37231 whole entry): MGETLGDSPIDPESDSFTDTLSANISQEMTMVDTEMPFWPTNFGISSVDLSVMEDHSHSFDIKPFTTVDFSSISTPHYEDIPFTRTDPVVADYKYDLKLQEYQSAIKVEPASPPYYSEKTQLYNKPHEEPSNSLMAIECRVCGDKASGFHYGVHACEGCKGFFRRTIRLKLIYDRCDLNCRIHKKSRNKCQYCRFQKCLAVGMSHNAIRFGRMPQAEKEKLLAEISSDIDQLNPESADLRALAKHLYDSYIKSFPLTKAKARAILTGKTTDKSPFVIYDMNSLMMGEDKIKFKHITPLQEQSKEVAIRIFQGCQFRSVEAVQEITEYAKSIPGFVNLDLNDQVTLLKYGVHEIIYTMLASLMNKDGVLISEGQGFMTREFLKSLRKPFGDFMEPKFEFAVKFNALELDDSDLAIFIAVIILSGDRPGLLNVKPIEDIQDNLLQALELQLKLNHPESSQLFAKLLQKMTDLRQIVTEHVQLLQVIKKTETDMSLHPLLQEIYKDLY
Sequence (Q9Y6Q9 whole entry, further chain): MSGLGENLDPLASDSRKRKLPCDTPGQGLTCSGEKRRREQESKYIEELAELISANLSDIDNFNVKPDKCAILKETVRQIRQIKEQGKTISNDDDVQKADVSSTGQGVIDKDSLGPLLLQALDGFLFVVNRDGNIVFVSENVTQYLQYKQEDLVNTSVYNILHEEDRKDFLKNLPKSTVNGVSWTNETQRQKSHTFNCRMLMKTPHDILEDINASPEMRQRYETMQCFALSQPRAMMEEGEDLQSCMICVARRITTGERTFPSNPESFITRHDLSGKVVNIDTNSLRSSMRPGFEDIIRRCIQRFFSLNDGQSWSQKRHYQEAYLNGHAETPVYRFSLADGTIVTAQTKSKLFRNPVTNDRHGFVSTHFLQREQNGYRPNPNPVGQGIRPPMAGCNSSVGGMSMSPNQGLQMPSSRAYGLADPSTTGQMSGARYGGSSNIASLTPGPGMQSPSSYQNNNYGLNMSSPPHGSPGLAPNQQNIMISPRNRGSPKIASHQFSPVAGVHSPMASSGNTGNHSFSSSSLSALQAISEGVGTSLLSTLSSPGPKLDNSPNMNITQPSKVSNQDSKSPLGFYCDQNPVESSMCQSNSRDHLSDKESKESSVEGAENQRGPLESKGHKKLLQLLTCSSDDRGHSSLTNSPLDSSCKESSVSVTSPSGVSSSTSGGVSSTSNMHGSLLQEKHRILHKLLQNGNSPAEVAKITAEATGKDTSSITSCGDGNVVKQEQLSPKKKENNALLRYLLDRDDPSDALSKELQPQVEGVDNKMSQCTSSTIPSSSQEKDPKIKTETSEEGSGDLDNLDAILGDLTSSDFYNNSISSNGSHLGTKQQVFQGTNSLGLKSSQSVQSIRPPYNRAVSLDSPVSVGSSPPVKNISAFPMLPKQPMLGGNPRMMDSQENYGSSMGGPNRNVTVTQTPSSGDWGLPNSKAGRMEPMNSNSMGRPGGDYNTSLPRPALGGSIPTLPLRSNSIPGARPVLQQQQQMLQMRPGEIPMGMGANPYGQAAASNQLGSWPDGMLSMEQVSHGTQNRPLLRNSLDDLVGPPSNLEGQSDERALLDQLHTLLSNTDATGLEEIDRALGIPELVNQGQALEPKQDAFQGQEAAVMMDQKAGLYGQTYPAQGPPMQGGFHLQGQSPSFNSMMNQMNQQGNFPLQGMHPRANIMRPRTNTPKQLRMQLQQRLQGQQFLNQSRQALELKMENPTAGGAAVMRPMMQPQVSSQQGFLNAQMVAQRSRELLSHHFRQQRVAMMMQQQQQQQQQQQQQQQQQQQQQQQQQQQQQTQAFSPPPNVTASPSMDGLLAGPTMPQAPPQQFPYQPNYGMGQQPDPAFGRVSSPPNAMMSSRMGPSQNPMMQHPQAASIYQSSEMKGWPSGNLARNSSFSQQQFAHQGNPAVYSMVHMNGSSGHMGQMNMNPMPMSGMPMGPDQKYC
Assay: TR-FRET dose response biochemical High Throughput Screening assay for agonists of the steroid receptor coactivator 3 (SRC-3) recruitment by the peroxisome proliferator-activated receptor gamma (PPAR gamma): non-selective agonists. [Related pubchem assays: 1301 (Confirmation screen.), 1048 (Primary screen.)]
Assay type: functional
Measurement name: EC50

molecule=N#Cc1cc2c(nc1SCc1ccccc1)CCCCC2 obs_value="> 79.4 µM (not active)"
molecule=Cc1cn(S(=O)(=O)c2ccc(Br)c3ccccc23)cn1 obs_value="> 79.4 µM (not active)"
molecule="CSC1=NP(=S)(SC)N(C)c2nc3n(c21)CCC3 (stereo unspecified)" obs_value="> 79.4 µM (not active)"
molecule=COc1cccc(NC(=O)CSc2c3c(nc4ccccc24)CCCC3)c1 obs_value="> 79.4 µM (not active)"
molecule=COc1c(F)c(F)c(C(=O)Nc2ccc3oc(-c4ccncc4)nc3c2)c(F)c1F obs_value="57.7 µM (not active)"
molecule=CCn1c(=O)cc(SCC(=O)Nc2ccc(OC)c(OC)c2)c2ccccc21 obs_value="> 79.4 µM (not active)"

====

# IC50 per record follows
Target: Carboxy-terminal domain RNA polymerase II polypeptide A small phosphatase 1 (Homo sapiens, UniProt Q9GZU7)
Sequence (Q9GZU7 whole entry): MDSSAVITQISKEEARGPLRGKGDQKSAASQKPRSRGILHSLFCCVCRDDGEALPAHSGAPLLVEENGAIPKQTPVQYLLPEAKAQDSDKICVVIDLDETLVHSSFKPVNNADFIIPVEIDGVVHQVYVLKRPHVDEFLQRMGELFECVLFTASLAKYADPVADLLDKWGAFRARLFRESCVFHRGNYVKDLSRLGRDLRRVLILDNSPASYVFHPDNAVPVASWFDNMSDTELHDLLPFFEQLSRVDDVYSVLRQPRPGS
Assay: CTDSP1 inhibitors, concentration-response, biochemical, absorbance readout, ultra-high-throughput screen actives (AID 540297)
Type: functional
Activity calls are given as the source filed them.
Measurement name: IC50

compound=CCCCOc1ccc(CNC(=O)NS(=O)(=O)c2ccc(OCC(C)C)cc2)cc1 obs_value="14.8 µM (active)"
compound=C[C@@H]1CN([C@H](C)CO)C(=O)c2cc(NC(=O)c3ccncc3)ccc2O[C@@H]1CN(C)C(=O)Nc1ccccc1 obs_value="12.8 µM (active)"
compound=CCCc1ccc(C(=O)NNC(=O)c2ccc(Br)cc2)cc1 obs_value="5.88 µM (active)"
compound=COc1cc(/C=C2\SC(=S)N(CCCCC(=O)O)C2=O)ccc1OS(=O)(=O)c1ccc(C)cc1 obs_value="4.16 µM (active)"
compound="C=C1c2cccc(OC)c2O[C@H](C(=O)OCC)[C@@H]1CC(CC)CCCC (some centres undefined)" obs_value="52.1 µM (active)"
compound=C[N+]1=C(/C=C/Nc2ccccc2Cl)C(C)(C)c2ccccc21 obs_value="5.96 µM (active)"
compound=COc1ccc2cc3cc(C(=O)NCc4ccco4)oc3nc2c1 obs_value="10.1 µM (active)"
compound=O=C(N/N=C/c1ccc(OC(=O)c2ccccc2Cl)cc1)c1cc(O)cc(O)c1 obs_value="1.4 µM (active)"
compound=O=C(Nc1ccc(F)cc1)c1cccc(N2C(=O)c3ccccc3C2=O)c1 obs_value="11.1 µM (active)"

====

Target: UniProt:P29990
Assay: flavivirus cap methylation enzyme inhibition – biochemical, confirmation dose response, primary screen (AID 588689)
Format: functional
Activity calls are given as the source filed them.
Measurement name: IC50

compound=Cc1ccc(C(=O)c2coc3c2C(=O)C(=O)c2ccccc2-3)cc1 measurement_name=IC50 obs_value="55 µM (active)"
compound=CCC(=O)Nc1ccc2nc3c(O)nc(S)nc3nc2c1 measurement_name=IC50 obs_value="39.4 µM (active)"
compound=O=C(Nc1ccccc1)C1=C(c2ccccc2)S(=O)(=O)CCS1(=O)=O measurement_name=IC50 obs_value="> 100 µM (active)"
compound=Cc1ccc(S(=O)(=O)NN2C(=O)/C(=C/c3ccc(C(=O)O)cc3)SC2=S)cc1 measurement_name=IC50 obs_value="64.9 µM (active)"
compound="O=C(O)c1ccc(NS(=O)(=O)c2ccc3c(c2)C2C=CCC2C(c2ccccc2F)N3)cc1 (stereo unspecified)" measurement_name=IC50 obs_value="62.3 µM (active)"
compound=O=C(NC(=S)Nc1ccccc1C(=O)O)c1ccc(-c2ccc(Br)cc2)o1 measurement_name=IC50 obs_value="42.2 µM (active)"
compound=CCc1nnc(NC(=O)c2nc(S(=O)(=O)Cc3cccc(C)c3)ncc2Cl)s1 measurement_name=IC50 obs_value="> 100 µM (active)"
compound=Cc1ccc(N2NC(=O)/C(=C\c3cc4c(cc3[N+](=O)[O-])OCO4)C2=O)cc1C measurement_name=IC50 obs_value="27 µM (active)"
compound=COC1=CC(=O)C(O)=C(CCCCCCC/C=C/CCCCCCCC2=C(O)C(=O)C=C(OC)C2=O)C1=O measurement_name=IC50 obs_value="10.8 µM (active)"
compound=COc1cc(/C=C2/C(=O)NN(c3cccc(C)c3)C2=O)cc([N+](=O)[O-])c1O measurement_name=IC50 obs_value="51.5 µM (active)"
compound=Cc1ccc(C(=O)c2no[n+]([O-])c2C(=O)c2ccc(C)cc2)cc1 measurement_name=IC50 obs_value="> 100 µM (active)"

// data source = ChEMBL document CHEMBL1201862
